- experimental-system: Muscarinic acetylcholine receptor M4 (Homo sapiens)
- protocol-notes: Cooperativity with acetylcholine at human muscarinic acetylcholine receptor M4
readout: Cooperativity
Number, no unit, nothing else.

See these solved cases before continuing.
compound="COc1cc2c(cc1OC)[C@@]13CC[N+]4(N)CC5=CCO[C@H]6CC(=O)N2[C@H]1[C@H]6[C@H]5C[C@@H]34 (some centres not stated)" readout=Cooperativity measured=0.8
compound="N#CC[N+]12CC[C@@]34c5ccccc5N5C(=O)C[C@@H]6OCC=C(C1)[C@H](C[C@@H]32)[C@@H]6[C@H]54 (some centres not stated)" readout=Cooperativity measured=0.8
compound="COc1cc2c(cc1OC)[C@@]13CC[N+]4(CCl)CC5=CCO[C@H]6CC(=O)N2[C@H]1[C@H]6[C@H]5C[C@@H]34 (some centres not stated)" readout=Cooperativity measured=1.19
compound="C=CC[N+]12CC[C@@]34c5ccccc5N5C(=O)C[C@@H]6OCC=C(C1)[C@H](C[C@@H]32)[C@@H]6[C@H]54 (some centres not stated)" readout=Cooperativity measured=0.8
compound="C=CC[N+]12CC[C@@]34c5cc(OC)c(OC)cc5N5C(=O)C[C@@H]6OCC=C(C1)[C@H](C[C@@H]32)[C@@H]6[C@H]54 (some centres not stated)" readout=Cooperativity measured=0.8

Next, consider the following compound.
Requested read-out: Cooperativity. Entry: COc1cc2c(cc1OC)[C@@]13CC[N+]4([O-])CC5=CCO[C@H]6CC(=O)N2[C@H]1[C@H]6[C@H]5C[C@@H]34 (some centres not stated)
2
